Cited source: patent US8431563B2

- TGT: GKRP (Glucokinase Regulatory Protein) with human His-hepatic GK (Homo sapiens)
- ASSAY METHOD TEXT: GKRP NADPH Coupled Assay
- Type: biochemical
- CONDITION LABEL: GK-GKRP EC50 (NADPH-coupled), indirect measure of glucose-6-phosphate, fluorescence; 1 μM GKRP (10×), 20 nM GK (5×)
Below, each entry is listed with its recorded EC50.
RECORDED ENDPOINT: EC50

INSERT INTO assay_data (compound, recorded_measurement) VALUES
  ('CC(O)(c1ccc(N2CCN(S(=O)(=O)c3cccs3)CC2CN2CC(O)C2)cc1)C(F)(F)F (mixture of isomers)', '2260 nM'),
  ('O=S(=O)(c1ccsc1)N1CCN(c2ccc(C(O)(C(F)(F)F)C(F)(F)F)cc2)CC1', '597 nM'),
  ('CC(O)(c1ccc(N2CCN(S(=O)(=O)c3cccs3)CC2CN2CCC(F)(F)CC2)cc1)C(F)(F)F (mixture of isomers)', '1050 nM'),
  ('Cn1ccc(S(=O)(=O)N2CCN(c3ccc(C(O)(C(F)(F)F)C(F)(F)F)cc3)CC2)n1', '1580 nM'),
  ('CC(O)(c1ccc(N2CCN(S(=O)(=O)c3cccs3)CC2Cc2ccc(F)cc2)cc1)C(F)(F)F (mixture of isomers)', '895 nM'),
  ('CC(O)(c1ccc(N2CCN(S(=O)(=O)c3cccs3)CC2CN2CC[C@@H](O)C2)cc1)C(F)(F)F (mixture of isomers)', '3500 nM'),
  ('O=S(=O)(c1cccs1)N1CCN(c2ccc(C(O)(C(F)(F)F)C(F)(F)F)cc2-c2ccsc2)CC1', '3500 nM');

====

- TGT: GKRP (Glucokinase Regulatory Protein) with human His-hepatic GK (Homo sapiens, UniProt Q14397)
- Sequence (Q14397 1-625): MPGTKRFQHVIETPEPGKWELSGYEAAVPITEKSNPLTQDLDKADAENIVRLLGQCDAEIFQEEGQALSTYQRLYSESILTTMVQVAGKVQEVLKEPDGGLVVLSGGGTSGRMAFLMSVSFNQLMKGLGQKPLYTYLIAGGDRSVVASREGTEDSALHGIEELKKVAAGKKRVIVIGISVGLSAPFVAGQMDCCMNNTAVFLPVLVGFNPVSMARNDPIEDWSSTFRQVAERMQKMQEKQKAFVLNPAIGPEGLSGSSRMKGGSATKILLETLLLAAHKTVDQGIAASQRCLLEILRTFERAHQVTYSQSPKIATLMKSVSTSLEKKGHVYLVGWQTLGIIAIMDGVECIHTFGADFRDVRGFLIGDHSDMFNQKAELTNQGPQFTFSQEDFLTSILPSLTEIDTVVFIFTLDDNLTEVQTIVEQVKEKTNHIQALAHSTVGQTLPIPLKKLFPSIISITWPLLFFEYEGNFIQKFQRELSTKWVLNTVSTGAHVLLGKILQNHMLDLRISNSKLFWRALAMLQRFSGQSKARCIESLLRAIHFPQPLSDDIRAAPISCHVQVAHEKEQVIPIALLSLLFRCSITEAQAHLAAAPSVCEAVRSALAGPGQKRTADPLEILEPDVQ
- ASSAY METHOD TEXT: GKRP LC MS/MS Biochemical Assay
- CONDITION LABEL: GK-GKRP EC50 (LC MS/MS), 13C-glucose-6-phosphate formation; 1 μM GKRP (10×), 30 nM GK (5×)
Counter-ions that a name gives are not always drawn.
RECORDED ENDPOINT: log10 of EC50 (log10 of the value in nM)

INSERT INTO measurements (molecule, recorded_measurement) VALUES
  ('O=S(=O)(c1cccs1)N1CCN(c2ccc(C(O)(C(F)(F)F)C(F)(F)F)cc2)[C@@H](Cc2ccccc2)C1 [Example 64]', 2.89),
  ('O=S(=O)(c1cccs1)N1CCN(c2ccc(C(O)(CO)C(F)(F)F)cc2)[C@@H](Cc2ccccc2)C1 (single isomer, unassigned) [Example 68 Peak #1]', 2.94),
  ('C[C@H]1CN(S(=O)(=O)c2ccccc2)CCN1c1ccc(C(C)(O)C(F)(F)F)cc1 (mixture of isomers) [Example 28]', 3.60),
  ('O=S(=O)(c1ccccc1)N1CCN(c2ncc(C(O)(C(F)(F)F)C(F)(F)F)cn2)CC1 [Example 23]', 3.12),
  ('O=S(=O)(c1ccccn1)N1CCN(c2ccc(C(O)(C(F)(F)F)C(F)(F)F)cc2)CC1 [Example 7]', 3.52),
  ('Cn1ccc(S(=O)(=O)N2CCN(c3ccc(C(O)(C(F)(F)F)C(F)(F)F)cc3)CC2)n1 [Example 5]', 3.73),
  ('Cc1ccc(S(=O)(=O)N2CCN(c3ccc(C(O)(C(F)(F)F)C(F)(F)F)cc3)CC2)s1 [Example 8]', 4.06),
  ('Cc1cccc(CC2CN(S(=O)(=O)c3cccs3)CCN2c2ccc(C(O)(C(F)(F)F)C(F)(F)F)cc2)c1 (racemic) [Example 42, hydrochloride]', 2.84),
  ('O=S(=O)(c1ccccc1F)N1CCN(c2ccc(C(O)(C(F)(F)F)C(F)(F)F)cc2)CC1 [Example 6]', 3.18),
  ('CC1(C)CN(CC2CN(S(=O)(=O)c3cccs3)CCN2c2ccc(C(C)(O)C(F)(F)F)cc2)CCO1 (mixture of isomers) [Example 47]', 2.47),
  ('O=S(=O)(c1ccccc1)c1ccc(-c2ccc(C(O)(C(F)(F)F)C(F)(F)F)cn2)cc1 [Example 17]', 3.23),
  ('C[C@H]1CN(S(=O)(=O)c2nccs2)CCN1c1ccc(C(O)(C(F)(F)F)C(F)(F)F)cc1 [Example 31, trifluoroacetate]', 2.85),
  ('O=S(=O)(c1ccccc1)N1CCN(c2ccc(C(O)(C(F)(F)F)C(F)(F)F)cc2)CC1 [Example 2]', 3.04),
  ('C[C@H]1CN(S(=O)(=O)c2nccs2)CCN1c1ccc(C(C)(O)C(F)(F)F)cc1 (single isomer, unassigned) [Example 34 Peak #2]', 3.28),
  ('CC(O)(c1ccc(N2CCN(S(=O)(=O)c3cccs3)CC2c2cc(Cl)ccc2Cl)cc1)C(F)(F)F (mixture of isomers) [Example 13]', 3.29);
